Test system: RARg homodimer (NR concentration 270 nM)
assayProcedure: PBM binding z-score (relative to random genomic background probes); higher = stronger binding; sequences stand for … in GC…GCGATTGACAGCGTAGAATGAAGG
Give 1.0 when the value for PBM binding z-score is at least 6. Give 0.0 when it is less.

Sample answers from the record:
constructSequence: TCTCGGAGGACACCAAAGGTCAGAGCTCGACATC
cat: 0.0
--
constructSequence: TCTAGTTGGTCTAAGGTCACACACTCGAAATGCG
cat: 0.0
--
constructSequence: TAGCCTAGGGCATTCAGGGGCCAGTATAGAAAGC
cat: 0.0
--
constructSequence: CGTCAAAGGTCAATGCTAGGTCAGTGAAAGCATT
cat: 1.0
--
constructSequence: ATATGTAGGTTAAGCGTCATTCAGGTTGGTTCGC
cat: 0.0

IN: Determine whether measured PBM binding z-score meets or exceeds 6 for `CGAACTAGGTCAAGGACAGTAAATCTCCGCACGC`
OUT: 0.0

IN: Does PBM binding z-score meet or surpass 6 for `AGAATGAGGTTACCAAAGGTCAGGGAAACGCTTG` ?
OUT: 0.0

IN: Could you verify whether the entry `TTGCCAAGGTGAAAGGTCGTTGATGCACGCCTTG` shows PBM binding z-score of no less than 6?
OUT: 0.0

IN: Please indicate if the recorded PBM binding z-score for `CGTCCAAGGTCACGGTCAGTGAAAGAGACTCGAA` meets or exceeds 6.
OUT: 1.0

IN: Confirm if PBM binding z-score reported for the sequence `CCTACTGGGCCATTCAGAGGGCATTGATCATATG` is 6 or above.
OUT: 0.0

IN: Determine whether measured PBM binding z-score meets or exceeds 6 for `TATACGGGGTCAAAGGCCAGAGTACGAATGTCGA`
OUT: 1.0
